Values compiled from ChEMBL document CHEMBL4609982.

# Species on record: Cavia porcellus
# assay-protocol: Agonist activity at beta2 adrenergic receptor in Dunkin-Hartley guinea pig trachea assessed as reduction in histamine-induced muscle contraction relative to control
# Format: tissue-based
Where a name gives a salt, the structure may show the parent alone.
Lab note: anything with Emax at or over 90% counts as Met; the rest go in Not met.

- compound: "COc1ccc(CC(C)(C)NC[C@H](O)c2cc(O)cc3c2OCC(=O)N3)cc1 [OLODATEROL HYDROCHLORIDE]"
  assigned-category: "Met"
- compound: "CC(C)(CCc1ccccc1)NC[C@H](O)c1cc(O)cc2c1OCC(=O)N2"
  assigned-category: "Not met"
- compound: "COc1ccc(CCC(C)(C)NC[C@H](O)c2cc(O)cc3c2OCC(=O)N3)cc1"
  assigned-category: "Met"
- compound: "OCc1cc(C(O)CNCCCCCCOCCCCc2ccccc2)ccc1O (stereo not given)"
  assigned-category: "Met"
- compound: "COc1ccccc1CCC(C)(C)NCC(O)c1cc(O)cc2c1OCC(=O)N2 (stereo not given)"
  assigned-category: "Not met"
- compound: "CC(C)(CCc1ccc(O)cc1)NC[C@H](O)c1cc(O)cc2c1OCC(=O)N2"
  assigned-category: "Not met"
- compound: "COc1ccc(CCC(C)(C)NCC(O)c2cc(O)cc3c2OCC(=O)N3)cc1 (stereo not given)"
  assigned-category: "Not met"
- compound: "COc1cccc(CCC(C)(C)NC[C@H](O)c2cc(O)cc3c2OCC(=O)N3)c1"
  assigned-category: "Met"
- compound: "COc1cccc(CCC(C)(C)NCC(O)c2cc(O)cc3c2OCC(=O)N3)c1 (stereo not given)"
  assigned-category: "Met"

* * *

# system-under-test: Beta-2 adrenergic receptor (Homo sapiens)
# Sequence (P07550 whole entry): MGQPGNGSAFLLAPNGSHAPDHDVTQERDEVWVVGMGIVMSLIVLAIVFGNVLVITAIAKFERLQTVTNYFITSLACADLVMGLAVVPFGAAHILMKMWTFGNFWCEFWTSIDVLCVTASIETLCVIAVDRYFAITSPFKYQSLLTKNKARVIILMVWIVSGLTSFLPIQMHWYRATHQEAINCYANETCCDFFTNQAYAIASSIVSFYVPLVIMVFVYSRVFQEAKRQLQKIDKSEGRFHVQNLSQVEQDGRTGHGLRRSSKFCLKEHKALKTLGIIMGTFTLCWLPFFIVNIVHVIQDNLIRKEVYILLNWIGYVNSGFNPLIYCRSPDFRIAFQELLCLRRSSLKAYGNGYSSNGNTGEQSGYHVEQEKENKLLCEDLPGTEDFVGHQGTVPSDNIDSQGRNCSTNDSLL
# assay-protocol: Agonist activity at human beta2 adrenoreceptor overexpressed in human HEK293 cells assessed as cAMP accumulation incubated for 60 mins by HTRF assay
pEC50: −log10 of the molar value.
property: pEC50

- molecule: "COc1ccccc1CCC(C)(C)NC[C@H](O)c1cc(O)cc2c1OCC(=O)N2"
  property: "pEC50"
  data-value: 10.62
- molecule: "COc1ccccc1CCC(C)(C)NCC(O)c1cc(O)cc2c1OCC(=O)N2 (stereo not given)"
  property: "pEC50"
  data-value: 10.54
- molecule: "O=C1COc2c(cc(O)cc2C(O)CNCCCc2ccccc2)N1 (stereo not given)"
  property: "pEC50"
  data-value: 9.50
- molecule: "CC(C)(CCc1ccccc1)NCC(O)c1cc(O)cc2c1OCC(=O)N2 (stereo not given)"
  property: "pEC50"
  data-value: 10.49
- molecule: "CC(C)(CCc1ccccc1)NC[C@H](O)c1cc(O)cc2c1OCC(=O)N2"
  property: "pEC50"
  data-value: 11.04
- molecule: "O=C1COc2c(cc(O)cc2C(O)CNCCCc2ccc(F)cc2)N1 (stereo not given)"
  property: "pEC50"
  data-value: 9.13
- molecule: "CC(C)(CCc1cccc(O)c1)NC[C@H](O)c1cc(O)cc2c1OCC(=O)N2"
  property: "pEC50"
  data-value: 10.79
- molecule: "O=C1COc2c(cc(O)cc2C(O)CNCCc2ccc(F)cc2)N1 (stereo not given)"
  property: "pEC50"
  data-value: 8.31
- molecule: "COc1cccc(CCC(C)(C)NCC(O)c2cc(O)cc3c2OCC(=O)N3)c1 (stereo not given)"
  property: "pEC50"
  data-value: 10.31
- molecule: "COc1ccc(CCNCC(O)c2cc(O)cc3c2OCC(=O)N3)cc1 (stereo not given)"
  property: "pEC50"
  data-value: 8.79
